- Tested on: KM12 colon
- Protocol details: NCI-60 one-dose screen, 48 h
- Settings: 10 µM unless noted
The panel holds about 83,000 compounds, 20% with a hit somewhere; the sample as a whole holds those more often. The source made the active and inactive calls. Rule for the calls: active = growth percent below 10; inactive = the rest.
Return exactly one item of label 1 for active, label 0 for inactive

Some entries whose results are on file:
[
  {
    "Compound": "CCc1cccc2c1S/C(=C/c1ccc(OC)cc1)C2=O",
    "Group label": "label 0"
  },
  {
    "Compound": "COc1ccc(OC)c(/C=C/C(=O)N/N=C/c2ccccc2)c1",
    "Group label": "label 0"
  },
  {
    "Compound": "COc1ccc2sc3c(NCCCN(C)C)nc4ccccc4c3c(=O)c2c1",
    "Group label": "label 1"
  }
]

Exam item: Entry COc1ccc(/C=C/c2c(C(=O)/C=C/c3ccc(Cl)cc3)c(C)nc3ccccc23)cc1 : call = ?
Marked response: label 0

Exam item: # outcome recorded in this test, key = O=C(Cc1ccc(F)c(Cl)c1)Nc1cc(C2(C(F)(F)F)CC2)nn1Cc1ccccc1
Marked response: label 0

Exam item: I'd appreciate the recorded outcome for COc1ccc(-c2[nH]c3ccc(OC)cc3c2/C=C(\C#N)S(=O)(=O)c2ccccc2)cc1 from this test.
Marked response: label 0

Exam item: Which result was noted for this compound in the test: CCOC(=O)C1=C(N)Oc2c(sc3c(CC)cccc23)C1c1ccc(F)cc1 (stereo not given)
Marked response: label 0

Exam item: Outcome? O=C1CCC(C(=O)NCCNCCNC(=O)C2CCC(=O)N2)N1 (stereo not given)
Marked response: label 0

---

- System: UACC-62 melanoma
- Protocol details: NCI-60 one-dose screen, 48 h
- Settings: 10 µM unless noted
- Description: Growth inhibition of the UACC-62 human tumor cell line is measured as a screen for anti-cancer activity. Cells are grown in 96 well plates and exposed to the test compound for 48 hours. Compounds are tested at a single concentration, which is 10^-5 M for most compounds. The reported endpoint is percent growth (GI% or GIPRCNT), where numbers from 0 - 100% represent growth inhibition, and numbers from -100% - 0 represent cell death. For example, a value of 40 represents 60% growth inhibition. […]
This is part of a sample that, as a whole, favours compounds with a hit. Of some 83,000 tested, about 20% had one in any assay. Active and inactive are the calls of the source. The calls were made as follows: active = growth percent below 10; inactive = the rest.
Log the outcome using a class from active, inactive

Some solved cases for reference:
[
  {
    "Compound": "COc1cccc(-c2nc(-c3ccc(NC(=O)c4ccccc4)cc3)[nH]c2-c2ccnc(Br)c2)c1",
    "Group label": "inactive"
  },
  {
    "Compound": "Cc1cc(O)c(C2=NN(c3ccc(S(N)(=O)=O)cc3)C(/C=C/c3ccccc3)C2)cc1Cl (stereo not given)",
    "Group label": "active"
  },
  {
    "Compound": "Cc1ccc2nc(NC(=O)CSc3nc(Cl)c(C#N)c(-c4ccccc4)n3)sc2c1",
    "Group label": "inactive"
  },
  {
    "Compound": "Clc1ccc(C(/C=C/c2sc(Cl)nc2Cl)=N/Nc2cc(Cl)cc(Cl)c2)cc1",
    "Group label": "inactive"
  }
]

Below: the item to evaluate.
Exam item: Hi, do you know how CCS(=O)(=O)c1ncnc2nc[nH]c12 came out in this test?
Marked response: inactive
